# Tested on: Huh-7
# assay: Cytotoxicity against human Huh-7 cells assessed as decrease in cell viability at 0.1 to 1 mM incubated for 5 days by Alamar blue assay
# Type: toxicity, cell-based
# measurement_conditions: huh-7, 120 h, 1000 µM, dose 0.1-1 mM, time 5 day
outcome_measure: Activity

Short answer please: Activity, Huh-7, entry `CC(C)OC(=O)[C@H](C)N[P@](=O)(OCC1=C[C@@H](O)[C@H](n2cnc3c(=O)[nH]cnc32)O1)Oc1ccccc1`
Non-Toxic

And the next one, `Nc1nc2c(ncn2[C@@H]2OC(CO)=C[C@H]2O)c(=O)[nH]1` ?
Non-Toxic

And the next one, `CC(C)OC(=O)[C@H](C)N[P@](=O)(OCC1=C[C@@H](O)[C@H](n2cnc3c(=O)[nH]c(N)nc32)O1)Oc1ccccc1` ?
Non-Toxic

And the next one, `Nc1ncnc2c1ncn2[C@@H]1OC(CO)=C[C@H]1O` ?
< 25%

---

# assay: Cytotoxicity against human Huh-7 cells assessed as cell viability at 1 mM incubated for 6 days by neutral red staining based assay
# Assay type: toxicity
# measurement_conditions: time 6 day, read-out: Activity
Each entry below carries its recorded viability at 144 h, 1000 µM.
Please give a number only; it is taken to be in %.

Would you kindly share the measured viability at 144 h, 1000 µM for `CC(C)OC(=O)[C@H](C)N[P@](=O)(OCC1=C[C@@H](O)[C@H](n2cnc3c(N)ncnc32)O1)Oc1ccccc1` ?
70

In the following, a different compound is considered.
Would you kindly share the measured viability at 144 h, 1000 µM for `Nc1ncnc2c1ncn2[C@@H]1OC(CO)=C[C@H]1O` ?
70

---

# Tested on: Huh-7
# assay: Cytotoxicity against human Huh-7 cells assessed as decrease in cell viability at 0.1 to 1 mM incubated for 5 days by Alamar blue assay
# Assay type: toxicity, cell-based
# measurement_conditions: huh-7, 120 h, 1000 µM, dose 0.1-1 mM, time 5 day
outcome_measure: Activity

Would you kindly share the measured Activity for `O=c1ccn([C@@H]2OC(CO)=C[C@H]2O)c(=O)[nH]1` ?
Non-Toxic

And the next one, `O=c1[nH]cnc2c1ncn2[C@@H]1OC(CO)=C[C@H]1O` ?
Non-Toxic

And the next one, `Cc1cn([C@@H]2OC(CO)=C[C@H]2O)c(=O)[nH]c1=O` ?
Non-Toxic

---

# Tested on: Huh-7
# assay: Cytotoxicity against human Huh-7 cells at 0.1 to 1 mM incubated for 6 days by neutral red staining based assay
# Assay type: toxicity, cell-based
# measurement_conditions: huh-7, 144 h, 1000 µM, dose 0.1-1 mM, time 6 day
outcome_measure: Activity

Would you kindly share the measured Activity for `Nc1nc2c(ncn2[C@@H]2OC(CO)=C[C@H]2O)c(=O)[nH]1` ?
Non-Toxic

And the next one, `CC(C)OC(=O)[C@H](C)N[P@](=O)(OCC1=C[C@@H](O)[C@H](n2cnc3c(=O)[nH]cnc32)O1)Oc1ccccc1` ?
Non-Toxic

And the next one, `Cc1cn([C@@H]2OC(CO[P@@](=O)(N[C@@H](C)C(=O)OC(C)C)Oc3ccccc3)=C[C@H]2O)c(=O)[nH]c1=O` ?
Non-Toxic
